Each entry below lists one item and its recorded MIC K. pneumoniae GN_106, PmxR value.
Test system: K. pneumoniae GN_106, PmxR
MEASUREMENT_PARAMETERS: GN 106, PmxR
Positions of bridges follow the written chain, without caps; N, C: chain ends. Non-standard residues stand in square brackets, D forms with d. Residues, ends and D or L forms follow the SMILES beside them. *: point of attachment. Decanoyl(3R-OH) = CCCCCCC[C@@H](O)CC(=O)*; dDab = NCC[C@@H](N)C(=O)O; Octanoyl = CCCCCCCC(=O)*; X8 = CC(C)CCCC(C)CC(=O)*; dDap = NC[C@@H](N)C(=O)O; Dab = NCC[C@H](N)C(=O)O
Give the quantity in µg/mL, number only.

[
  {
    "COMPOUND": "CC(C)CCCC(C)CC(=O)N[C@H](CCN)C(=O)N[C@H]1CCNC(=O)[C@H](CC(C)C)NC(=O)[C@H](CCN)NC(=O)[C@H](CCN)NC(=O)[C@H](CC(C)C)NC(=O)[C@@H](Cc2ccccc2)NC(=O)[C@H](CCN)NC1=O (stereo partly drawn) [compound 6523] (X8-[dDab][Dab][Dab][dF]L[Dab][Dab]L; lactam 2-C)",
    "ASSAY_ENDPOINT": "MIC K. pneumoniae GN_106, PmxR",
    "NUMBER": 32
  }
]

## Input Which measured MIC K. pneumoniae GN_106, PmxR value corresponds to CCCCCCC[C@@H](O)CC(=O)N[C@H](CCN)C(=O)N[C@H]1CCNC(=O)[C@H](CC(C)C)NC(=O)[C@H](CCNC(=O)[C@@H](N)CCCNC(=N)N)NC(=O)[C@H](CCN)NC(=O)[C@H](CC(C)C)NC(=O)[C@@H](Cc2ccccc2)NC(=O)[C@H](CCN)NC1=O [compound 6653] ({Decanoyl(3R-OH)}-[dDab][Dab][Dab][dF]L[Dab][Dab](Arg)L; lactam 2-C) ?
## Output 16

## Input Another compound to look at: CCCCCCCC(=O)N[C@H](CN)C(=O)N[C@H]1CCNC(=O)[C@H](CC(C)C)NC(=O)[C@H](CCN)NC(=O)[C@H](CCN)NC(=O)[C@H](CC(C)C)NC(=O)[C@@H](CC(C)C)NC(=O)[C@H](CCN)NC1=O [compound 8978] (Octanoyl-[dDap][Dab][Dab][dL]L[Dab][Dab]L; lactam 2-C)
## Output 32

## Input Another compound to look at: CCCCCCC[C@@H](O)CC(=O)N[C@H](CCN)C(=O)N[C@H]1CCNC(=O)[C@H](CC(C)C)NC(=O)[C@H](CCN)NC(=O)[C@H](CCN)NC(=O)[C@H](CC(C)C)NC(=O)[C@@H](C)NC(=O)[C@H](CCN)NC1=O [compound 5006] ({Decanoyl(3R-OH)}-[dDab][Dab][Dab][dA]L[Dab][Dab]L; lactam 2-C)
## Output 32

----------
System: K. pneumoniae GN_106, PmxR
MEASUREMENT_PARAMETERS: GN 106, PmxR
Positions of bridges follow the written chain, without caps; N, C: chain ends. Non-standard residues stand in square brackets, D forms with d. Residues, ends and D or L forms follow the SMILES beside them. *: point of attachment. Decanoyl(3R-OH) = CCCCCCC[C@@H](O)CC(=O)*; dBip = N[C@H](Cc1ccc(-c2ccccc2)cc1)C(=O)O; Igl = N[C@H](C(=O)O)C1Cc2ccccc2C1; dOrn = NCCC[C@@H](N)C(=O)O; dDab = NCC[C@@H](N)C(=O)O; dDap = NC[C@@H](N)C(=O)O; Dab = NCC[C@H](N)C(=O)O; Dap = NC[C@H](N)C(=O)O
ASSAY_ENDPOINT: MIC K. pneumoniae GN_106, PmxR

Study these solved cases before continuing.
[
  {
    "COMPOUND": "CCCCCCC[C@@H](O)CC(=O)N[C@H](CCN)C(=O)N[C@H]1CCNC(=O)[C@H](CC(C)C)NC(=O)[C@H](CCCNC(=N)N)NC(=O)[C@H](CCN)NC(=O)[C@H](CC(C)C)NC(=O)[C@@H](Cc2ccccc2)NC(=O)[C@H](CCN)NC1=O [compound 8643] ({Decanoyl(3R-OH)}-[dDab][Dab][Dab][dF]L[Dab]RL; lactam 2-C)",
    "MIC K. pneumoniae GN_106, PmxR": "2 µg/mL"
  },
  {
    "COMPOUND": "CCCCCCC[C@@H](O)CC(=O)N[C@H](CCN)C(=O)N[C@H]1CCNC(=O)[C@H](CC(C)C)NC(=O)[C@H](CCN)NC(=O)[C@H](CCN)NC(=O)[C@H](CC(C)C)NC(=O)[C@H](C)NC(=O)[C@H](CCN)NC1=O [compound 4947] ({Decanoyl(3R-OH)}-[dDab][Dab][Dab]AL[Dab][Dab]L; lactam 2-C)",
    "MIC K. pneumoniae GN_106, PmxR": ">32 µg/mL"
  }
]

## Input Which measured MIC K. pneumoniae GN_106, PmxR value corresponds to CCCCCCC[C@@H](O)CC(=O)N[C@H](CCN)C(=O)N[C@H]1CCNC(=O)[C@H](CC(C)C)NC(=O)[C@H](CN)NC(=O)[C@H](CCN)NC(=O)[C@H](CC(C)C)NC(=O)[C@@H](Cc2ccc(-c3ccccc3)cc2)NC(=O)[C@H](CCN)NC1=O [compound 5383] ({Decanoyl(3R-OH)}-[dDab][Dab][Dab][dBip]L[Dab][Dap]L; lactam 2-C) ?
## Output 8 µg/mL

## Input Another compound to look at: CCCCCCC[C@@H](O)CC(=O)N[C@H](CN)C(=O)N[C@H]1CCNC(=O)[C@H](Cc2c[nH]c3ccccc23)NC(=O)[C@H](CCCNC(=N)N)NC(=O)[C@H](CCCCN)NC(=O)[C@H](C2Cc3ccccc3C2)NC(=O)[C@@H](Cc2ccccc2)NC(=O)[C@H](CCN)NC1=O [compound 8888] ({Decanoyl(3R-OH)}-[dDap][Dab][Dab][dF][Igl]KRW; lactam 2-C)
## Output 4 µg/mL

## Input Another compound to look at: CCCCCCC[C@@H](O)CC(=O)N[C@H](CCN)C(=O)N[C@H]1CCNC(=O)[C@H](C)NC(=O)[C@H](CCN)NC(=O)[C@H](CCN)NC(=O)[C@H](CC(C)C)NC(=O)[C@@H](Cc2ccccc2)NC(=O)[C@H](CCN)NC1=O [compound 4943] ({Decanoyl(3R-OH)}-[dDab][Dab][Dab][dF]L[Dab][Dab]A; lactam 2-C)
## Output 16 µg/mL

## Input Another compound to look at: CCCCCCC[C@@H](O)CC(=O)N[C@H](CCCN)C(=O)N[C@H]1CCNC(=O)[C@H]([C@@H](C)O)NC(=O)[C@H](CCN)NC(=O)[C@H](CCN)NC(=O)[C@H](CC(C)C)NC(=O)[C@@H](Cc2ccccc2)NC(=O)[C@H](CCN)NC1=O [compound 6396] ({Decanoyl(3R-OH)}-[dOrn][Dab][Dab][dF]L[Dab][Dab]T; lactam 2-C)
## Output >32 µg/mL

Origin of the recorded values: patent US11279733B2
